Catalogue of binders with associated Kd
Molecular target: T1, Recombinant human CD8ab protein (extracellular domains of CD8a and CD8b with leucine zippers and tags) (human, UniProt P01732 22-182; P10966 22-170)
T1 construct: extracellular domain; Secreted from HEK293 cells; also called recombinant CD8ab; soluble CD8ab antigen; not shown: acidic leucine zipper; 8x Histidine tag; basic leucine zipper; Strep-tag II
T1 sequence (P01732 22-182, chain 1 of 2): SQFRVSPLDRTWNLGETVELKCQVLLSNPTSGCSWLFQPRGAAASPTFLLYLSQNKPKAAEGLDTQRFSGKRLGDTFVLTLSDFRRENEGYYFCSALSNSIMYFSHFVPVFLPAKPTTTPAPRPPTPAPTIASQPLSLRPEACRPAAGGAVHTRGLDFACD
T1 sequence (P10966 22-170, chain 2 of 2): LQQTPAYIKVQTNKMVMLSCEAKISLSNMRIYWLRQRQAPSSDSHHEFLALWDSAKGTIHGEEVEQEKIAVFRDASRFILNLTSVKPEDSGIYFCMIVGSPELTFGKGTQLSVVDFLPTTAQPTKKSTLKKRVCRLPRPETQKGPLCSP
Assay: SPR (Biacore T200, 37 C), antibody captured by anti-human IgG Fc, soluble CD8ab as analyte, 1:1 model
Just the number please, in nM, no unit attached.

binder	unit_text	Kd
xhCD8v5 (antibody, human IgG1, V domains shown) VH: QVQLVQSGAEVKKPGSSVKVSCKASGSGFRGHAISWVRQAPGQGLEWMGGIIPGHAKANYAQKFQGRVTITADESTSTAYMELSSLRSEDTAVYYCARDGLGIRLFADWGQGTLVTVSS VL: DIQMTQSPSSLSASVGDRVTITCRASQKIYGALNWYQQKPGKAPKLLIYGATNLQSGVPSRFSGSGSGTDFTLTISSLQPEDFATYYCQNTYDTPWTFGGGTKVEIK	nM	117
xhCD8v2 (antibody, human IgG1, V domains shown) VH: QVQLVQSGAEVKKPGSSVKVSCKASGYRFHNFAISWVRQAPGQGLEWMGGIIPGHAKANYAQKFQGRVTITADESTSTAYMELSSLRSEDTAVYYCARDGLGIRLFADWGQGTLVTVSS VL: DIQMTQSPSSLSASVGDRVTITCRASQEIYGALNWYQQKPGKAPKLLIYGATNLQSGVPSRFSGSGSGTDFTLTISSLQPEDFATYYCQDIYDAPWTFGGGTKVEIK	nM	41.6

Could you now look at the following binder, please?
// query I have this binder here, xhCD8v4 (antibody, human IgG1, V domains shown) VH: QVQLVQSGAEVKKPGSSVKVSCKASGYTFTKYAISWVRQAPGQGLEWMGGIIPGHAKANYAQKFQGRVTITADESTSTAYMELSSLRSEDTAVYYCARDGLGIRLFADWGQGTLVTVSS VL: DIQMTQSPSSLSASVGDRVTITCRASQKIYGALNWYQQKPGKAPKLLIYGATNLQSGVPSRFSGSGSGTDFTLTISSLQPEDFATYYCQNTYDTPWTFGGGTKVEIK , and I need its recorded Kd.
// result 137
